# Tested System: human Siglec-7 on primary human monocyte-derived dendritic cells (human, UniProt Q9Y286 19-467)
# Sequence (Q9Y286 19-467): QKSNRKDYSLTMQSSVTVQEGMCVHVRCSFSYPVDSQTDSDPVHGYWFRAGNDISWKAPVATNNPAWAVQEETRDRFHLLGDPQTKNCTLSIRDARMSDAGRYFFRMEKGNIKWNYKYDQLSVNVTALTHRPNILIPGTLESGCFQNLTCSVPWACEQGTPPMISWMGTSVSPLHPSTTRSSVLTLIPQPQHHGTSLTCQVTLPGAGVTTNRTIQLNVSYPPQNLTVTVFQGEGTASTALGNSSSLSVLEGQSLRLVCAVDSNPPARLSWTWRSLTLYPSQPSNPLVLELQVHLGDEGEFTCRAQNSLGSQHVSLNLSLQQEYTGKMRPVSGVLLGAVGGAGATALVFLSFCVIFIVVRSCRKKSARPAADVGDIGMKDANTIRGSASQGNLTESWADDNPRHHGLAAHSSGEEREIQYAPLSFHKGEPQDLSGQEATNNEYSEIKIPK
# Test Description: cell-based or functional assay
Would you kindly list Maximal downregulation (% Siglec-7 remaining) for each of these binders?
Answers are plain numbers, in %.

Answered examples (2):
[[record]]
binder = "S7AB-H8.6 (antibody, V domains shown) VH: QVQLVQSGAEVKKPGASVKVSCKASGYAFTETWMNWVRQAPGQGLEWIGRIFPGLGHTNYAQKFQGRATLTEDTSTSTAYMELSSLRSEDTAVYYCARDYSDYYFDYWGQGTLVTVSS VL: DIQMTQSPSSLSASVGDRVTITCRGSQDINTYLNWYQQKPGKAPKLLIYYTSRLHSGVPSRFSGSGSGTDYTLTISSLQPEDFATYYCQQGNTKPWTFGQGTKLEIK"
endpoint_result = 7.2

[[record]]
binder = "S7AB-H8.9.2 (antibody, V domains shown) VH: QVQLVQSGAEVKKPGASVKVSCKASGYAFTAAWMNWVRQARGQRLEWIGRIFPGLGHTNYAQKFQGRATLTEDTSTSTAYMELSSLRSEDTAVYYCARDYSDYYFDYWGQGTLVTVSS VL: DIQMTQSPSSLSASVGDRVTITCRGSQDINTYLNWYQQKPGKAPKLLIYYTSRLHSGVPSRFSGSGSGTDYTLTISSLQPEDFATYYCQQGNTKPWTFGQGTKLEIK"
endpoint_result = 4.5


Would you kindly look at the next entry?
S7AB-H8.3 (antibody, V domains shown) VH: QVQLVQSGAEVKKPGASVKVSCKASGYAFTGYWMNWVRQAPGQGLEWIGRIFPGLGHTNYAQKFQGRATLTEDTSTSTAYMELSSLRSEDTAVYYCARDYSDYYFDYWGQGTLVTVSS VL: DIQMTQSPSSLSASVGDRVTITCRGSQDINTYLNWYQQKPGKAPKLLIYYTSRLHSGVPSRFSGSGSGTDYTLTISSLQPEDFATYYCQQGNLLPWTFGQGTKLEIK yielded Maximal downregulation (% Siglec-7 remaining) of 20.1
